Reference for the values: paper PMC10442743

- EXPERIMENTAL DETAILS: Solubility in water (ICP-MS)
- CONDITION INFO: 25 °C, limit of detection = 5 ppt
Could you please report measured Solubility (μg/mL) for the items listed next?
Field format: number, assumed µg/mL, no unit text.

In plain terms, Cc1cccc[c]1[Ru+]([Cl])([PH]12CN3CN(CN(C3)C1)C2)[PH](c1ccccc1)(c1ccccc1)c1ccccc1.F[P-](F)(F)(F)(F)F (centres unmarked) has a documented Solubility (μg/mL) of 475

Entry `Cc1cccc[c]1[Ru+]([Cl])([PH](c1ccccc1)(c1ccccc1)c1ccccc1)[PH](c1ccccc1)(c1ccccc1)c1ccccc1.O=[N+]([O-])[O-]` ; Solubility (μg/mL) = 218

Data point: `Cc1ccccc1.[Cl][Ru]([Cl])[PH](c1ccccc1)(c1ccccc1)c1ccccc1` ; Solubility (μg/mL) = 34

Record Cc1ccccc1.[Cl-].[Cl][Ru+]([PH](c1ccccc1)(c1ccccc1)c1ccccc1)[PH](c1ccccc1)(c1ccccc1)c1ccccc1 [Compound 11Cl, [Ru(η^6-toluene)(PPh3)2Cl]Cl] . Reported Solubility (μg/mL): 416

* * *

- EXPERIMENTAL DETAILS: Molar conductivity in acetonitrile
- Format: physicochemical
- CONDITION INFO: 1 mM in acetonitrile, 25 °C
PROPERTY MEASURED: Conductivity (molar conductivity) (S·cm2/mol)
Reply with just the number (in S·cm2/mol).

GET /value?item= `Cc1cccc[c]1[Ru+]([Cl])([PH](c1ccccc1)(c1ccccc1)c1ccccc1)[PH](c1ccccc1)(c1ccccc1)c1ccccc1.O=S(=O)([O-])C(F)(F)F` &field=Conductivity (molar conductivity) returns 173

Query `Cc1cccc[c]1[Ru+]([Cl])([PH](c1ccccc1)(c1ccccc1)c1ccccc1)[PH](c1ccccc1)(c1ccccc1)c1ccccc1.F[P-](F)(F)(F)(F)F` yields Conductivity (molar conductivity) of 150

Consider `Cc1cccc[c]1[Ru+]([Cl])([PH](c1ccccc1)(c1ccccc1)c1ccccc1)[PH](c1ccccc1)(c1ccccc1)c1ccccc1.[F][Sb-]([F])([F])([F])([F])[F]` . Its measured Conductivity (molar conductivity) is 186

Entry `Cc1cccc[c]1[Ru+]([Cl])([PH](c1ccccc1)(c1ccccc1)c1ccccc1)[PH](c1ccccc1)(c1ccccc1)c1ccccc1.c1ccc([B-](c2ccccc2)(c2ccccc2)c2ccccc2)cc1` — recorded Conductivity (molar conductivity) = 71

Notebook: Cc1ccccc1.[Cl-].[Cl][Ru+]([PH](c1ccccc1)(c1ccccc1)c1ccccc1)[PH](c1ccccc1)(c1ccccc1)c1ccccc1 [Compound 11Cl, [Ru(η^6-toluene)(PPh3)2Cl]Cl] , Conductivity (molar conductivity) read as 128

Input `Cc1cccc[c]1[Ru+]([Cl])([PH](c1ccccc1)(c1ccccc1)c1ccccc1)[PH](c1ccccc1)(c1ccccc1)c1ccccc1.O=[N+]([O-])[O-]` . Output Conductivity (molar conductivity): 141

Per the records, this compound ( `Cc1cccc[c]1[Ru+]([Cl])([PH](c1ccccc1)(c1ccccc1)c1ccccc1)[PH](c1ccccc1)(c1ccccc1)c1ccccc1.F[B-](F)(F)F` ) has Conductivity (molar conductivity) equal to 124

* * *

Give measured pIC50 for each item. Keep answers brief.
- Test system: MDA-MB-231
- EXPERIMENTAL DETAILS: MTT cytotoxicity assay, MDA-MB-231 cells
- Format: cell-based, human
- CONDITION INFO: sodium counteranion salts, 72 h; read-out: IC50 in MDA-MB-231 cell line Mean ± SD 72h
- Description: The cytotoxicity of 1–11CA was assessed against human breast cancer MCF-7 and MDA-MB-231 cells, and non-tumorigenic adherent mouse fibroblast connective tissue L929 cells using the MTT assay after 24 and 72 h (Tables S5 ^† and Table 1, respectively). Then, necessary dilutions were made using the supplement DMEM, to prepare the range of tested concentrations. […]
Formally, pIC50 is defined as -log10 of the concentration c, with c in mol/L.

# pIC50 of c1ccc([B-](c2ccccc2)(c2ccccc2)c2ccccc2)cc1 [NaBPh4, reference compound] = 3.83

Reported pIC50 for O=[N+]([O-])[O-].[Na+] [NaNO3, reference compound] was 3.48

pIC50 in this record for F[B-](F)(F)F.[Na+] [NaBF4, reference compound] : 3.46

The recorded pIC50 for entry [F][Sb-]([F])([F])([F])([F])[F].[Na+] [NaSbF6, reference compound] equals 3.63

The compound listed as O=S(=O)([O-])C(F)(F)F.[Na+] [NaOTf, reference compound] shows pIC50 equal to 3.45

Entry under test: F[P-](F)(F)(F)(F)F.[Na+] [NaPF6, reference compound] . Its pIC50 was 3.48

For [Cl-].[Na+] [NaCl, reference compound] the compound record lists pIC50 as 3.40

* * *

- System: MDA-MB-231
- EXPERIMENTAL DETAILS: MTT cytotoxicity assay, MDA-MB-231 cells
- Assay type: cell-based, human
- CONDITION INFO: 72 h exposure, MTT; read-out: IC50 (μM) (average ± standard deviation) 72 h MDA-MB-231
PROPERTY MEASURED: IC50 (µM)
Numeric only. Scale: µM

Lab note: measured IC50 of Cc1ccc(C(C)C)cc1.[Cl][Ru]([Cl])[PH]12CN3CN(CN(C3)C1)C2 [Compound 5] was 71

For this molecule ( Cc1ccccc1.[Cl][Ru]([Cl])[PH](c1ccccc1)(c1ccccc1)c1ccccc1 [Compound 9] ), measured IC50 is 44

What the record says about Cc1cccc[c]1[Ru+]([Cl])([PH]12CN3CN(CN(C3)C1)C2)[PH](c1ccccc1)(c1ccccc1)c1ccccc1.F[P-](F)(F)(F)(F)F (stereo not shown) [Compound 10] : IC50 is 2.8

Data point: Cc1cccc[c]1[Ru+]([Cl])([PH](c1ccccc1)(c1ccccc1)c1ccccc1)[PH](c1ccccc1)(c1ccccc1)c1ccccc1.O=S(=O)([O-])C(F)(F)F [Compound 11OTf] ; IC50 = 1.4

* * *

For each record, write down the corresponding log10 IC50.
- Tested on: MDA-MB-231
- EXPERIMENTAL DETAILS: MTT cytotoxicity assay, MDA-MB-231 cells
- Assay type: cell-based, human
- CONDITION INFO: 24 h exposure, MTT; read-out: IC50 (µM) (average ± standard deviation) 24 h MDA-MB-231
Annotation: log10 of IC50, µM basis.

The value of log10 IC50 measured for the compound `Cc1ccc(C(C)C)cc1.[Br][Ru]([Br])[PH]12CN3CN(CN(C3)C1)C2` turned out to be 2.59

According to the records, this compound `Cc1ccc(C(C)C)cc1.[Cl][Ru]([Cl])[PH]12CN3CN(CN(C3)C1)C2` displays log10 IC50 of 2.70

The reported value for `Cc1cccc[c]1[Ru+]([Cl])([PH](c1ccccc1)(c1ccccc1)c1ccccc1)[PH](c1ccccc1)(c1ccccc1)c1ccccc1.[F][Sb-]([F])([F])([F])([F])[F]` in terms of log10 IC50 is 1.32

Briefly, log10 IC50 measured for `Cc1ccc(C(C)C)cc1.O=C1[O][Ru]([PH]23CN4CN(CN(C4)C2)C3)[O]C1=O` : 2.71

What the record says about `Cc1cccc[c]1[Ru+]([Cl])([PH](c1ccccc1)(c1ccccc1)c1ccccc1)[PH](c1ccccc1)(c1ccccc1)c1ccccc1.F[P-](F)(F)(F)(F)F` : log10 IC50 is 0.70

The compound listed as `Cc1cccc[c]1[Ru+]([Cl])([PH](c1ccccc1)(c1ccccc1)c1ccccc1)[PH](c1ccccc1)(c1ccccc1)c1ccccc1.O=S(=O)([O-])C(F)(F)F` shows log10 IC50 equal to 0.60

* * *

- Tested on: MCF-7
- EXPERIMENTAL DETAILS: MTT cytotoxicity assay, MCF-7 cells
- Assay type: cell-based, human
- CONDITION INFO: 24 h exposure, MTT; read-out: IC50 (µM) (average ± standard deviation) 24 h MCF-7
For each record, write down the corresponding IC50.

Measured IC50 of Cc1ccc(C(C)C)cc1.[Cl][Ru]([Cl])[PH]12CN3CN(CN(C3)C1)C2 [Compound 5] : 526 µM

Reported IC50 ( Cc1ccc(C(C)C)cc1.[Br][Ru]([Br])[PH]12CN3CN(CN(C3)C1)C2 [Compound 6] ) = 376 µM

IC50 reported for this compound Cc1cccc[c]1[Ru+]([Cl])([PH](c1ccccc1)(c1ccccc1)c1ccccc1)[PH](c1ccccc1)(c1ccccc1)c1ccccc1.c1ccc([B-](c2ccccc2)(c2ccccc2)c2ccccc2)cc1 [Compound 11BPh4] : 51 µM

Entry Cc1cccc[c]1[Ru+]([Cl])([PH](c1ccccc1)(c1ccccc1)c1ccccc1)[PH](c1ccccc1)(c1ccccc1)c1ccccc1.O=[N+]([O-])[O-] [Compound 11NO3] ; IC50 = 5.9 µM

Cc1ccccc1.[Cl][Ru]([Cl])[PH]12CN3CN(CN(C3)C1)C2 [Compound 4] has a reported IC50 of 474 µM

Note to self: IC50 recorded for Cc1cccc[c]1[Ru+]([Cl])([PH](c1ccccc1)(c1ccccc1)c1ccccc1)[PH](c1ccccc1)(c1ccccc1)c1ccccc1.F[B-](F)(F)F [Compound 11BF4] was 5.4 µM
